# Target system: human PPARα (Homo sapiens, UniProt Q07869)
# Construct: The coding region of a human PPARα cDNA was inserted downstream of the CMV promoter; expressed in transfected cells; host or cells: Cos-7 cells, transient transfection (pcDNA3.1(−)-PPARα, pRSV-RXRα, 3xPPRE-TK-luc reporter, pRL-TK)
# Sequence (Q07869 1-468): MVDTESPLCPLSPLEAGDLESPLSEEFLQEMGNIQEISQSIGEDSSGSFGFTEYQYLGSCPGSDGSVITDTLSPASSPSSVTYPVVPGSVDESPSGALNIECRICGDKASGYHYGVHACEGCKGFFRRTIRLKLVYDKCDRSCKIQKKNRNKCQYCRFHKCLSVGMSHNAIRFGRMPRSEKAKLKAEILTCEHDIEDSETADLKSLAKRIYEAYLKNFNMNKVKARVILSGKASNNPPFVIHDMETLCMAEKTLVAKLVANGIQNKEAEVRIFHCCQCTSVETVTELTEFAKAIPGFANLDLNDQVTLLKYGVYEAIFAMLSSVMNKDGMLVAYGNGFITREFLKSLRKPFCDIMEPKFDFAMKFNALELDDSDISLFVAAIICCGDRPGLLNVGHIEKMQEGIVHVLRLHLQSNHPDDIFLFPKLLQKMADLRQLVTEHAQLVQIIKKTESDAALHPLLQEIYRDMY
# Sequence (P19793 1-462 partner): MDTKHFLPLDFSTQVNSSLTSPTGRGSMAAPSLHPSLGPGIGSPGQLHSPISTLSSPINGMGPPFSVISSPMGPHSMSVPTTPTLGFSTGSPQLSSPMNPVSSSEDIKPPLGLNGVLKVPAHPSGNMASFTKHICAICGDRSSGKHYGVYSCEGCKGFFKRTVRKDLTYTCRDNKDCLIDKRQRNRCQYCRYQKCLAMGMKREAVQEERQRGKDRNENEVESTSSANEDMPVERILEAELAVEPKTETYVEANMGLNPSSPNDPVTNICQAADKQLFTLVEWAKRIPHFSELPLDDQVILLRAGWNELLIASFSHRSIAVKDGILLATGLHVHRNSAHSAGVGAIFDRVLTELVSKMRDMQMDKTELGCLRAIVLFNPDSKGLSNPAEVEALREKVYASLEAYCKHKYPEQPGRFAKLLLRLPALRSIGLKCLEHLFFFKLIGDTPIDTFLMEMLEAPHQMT
# Measurement protocol: PPARα reporter gene assay (firefly luciferase, transiently transfected Cos-7 cells)
# Type: cell-based
# Assay setup: pass = activation greater than oleic acid at 100 μM, commonly >1.57 times vehicle control; 24 h treatment
Observed property: Pass at (lowest tested administration level at which the test material passed) (μm)

CCCCCCCCCCC/C=C\CCCCC(=O)O
10
CCCCCC=CC/C=C\CCCCCCCCCC(=O)O [cis-11,14-eicosadienoic acid]
10
CC/C=C\CCCCCCCCCCCCCC(=O)O [cis-15-octadecanoic acid]
100
Cc1cccc(Nc2cc(Cl)nc(SCC(=O)O)n2)c1C [WY14,643, reference compound]
10
CCC=CCC=CC/C=C\CCCCCCCCCCCC(=O)O [cis-13,16,19 docosatrienoic acid]
100

// provenance: patent US6713051B2
